Below, each entry is listed with its recorded efficacy.
# Tested on: HCT116
# assayProcedure: efficacy (fitted maximal change in viability relative to DMSO control); higher = less cytotoxic (negative = loss of viability)
# assayConditions: 48 h
Report only the number, with the unit % understood.

Value lookup for efficacy; key = COc1cc(OC)cc(N2CCN(C(=O)Nc3nc4cc(F)ccc4nc3OC)CC2)c1 [RX-5902 (SUPINOXIN)] -60

Value lookup for efficacy; key = "O=C1CCc2cc(OCCCCc3nnnn3C3CCCCC3)ccc2N1" -26.7

Value lookup for efficacy; key = "CN(C)c1ccc(-c2nc3c(N4CCN(CC(=O)Nc5nccs5)CC4)c(Cl)cnc3[nH]2)cc1" -34.1

Value lookup for efficacy; key = CC(=O)O[C@@]1(CC[C@H]2[C@@H]3\C=C(C)/C4=C/C(=O)CC[C@]4(C)[C@H]3CC[C@]12C)C(C)=O [Megestrol acetate] -13.4

Value lookup for efficacy; key = "NC(=O)N1CCC(CC(=O)N2CCC([C@H]3c4ncc(Br)cc4CCc4cc(Cl)cc(Br)c43)CC2)CC1" -100

Value lookup for efficacy; key = "CC(=O)c1c(O)c(C)c(O)c(Cc2c(O)c3c(c(C(=O)/C=C/c4ccccc4)c2O)OC(C)(C)C=C3)c1O" -8.89

Value lookup for efficacy; key = "Cc1ccc(NC(=O)c2ccc3c(c2)OCCO3)cc1NC(=O)c1ccc2nc(OCCN3CCCC3)ccc2c1" -69.9

Value lookup for efficacy; key = O=C(/C=C\n1cnc(-c2cc(C(F)(F)F)cc(C(F)(F)F)c2)n1)NNc1cnccn1 [Selinexor] -93.1

Value lookup for efficacy; key = "C=CC(=O)N1CCC[C@@H](n2nc(-c3ccc(Oc4ccccc4)cc3)c3c(N)ncnc32)C1" -90.8

Value lookup for efficacy; key = "C/C=C1\NC(=O)[C@H]2CSSCC/C=C\[C@H](CC(=O)N[C@H](C(C)C)C(=O)N2)OC(=O)[C@H](C(C)C)NC1=O" -94.8

Value lookup for efficacy; key = "Cc1nc2cc(C(=O)N3CCC4(CC3)CC(=O)c3c(cnn3C(C)C)C4)ccc2[nH]1" -35.5

Value lookup for efficacy; key = "Cc1c(F)cc(C(=O)NC2CC2)cc1-c1ccc(C(=O)NCC(C)(C)C)cn1" -18.8

Value lookup for efficacy; key = "C[C@@H]1CN(Cc2ccc(F)cc2)CCN1C(=O)COc1ccc(Cl)cc1NC(N)=O" -59.8

Value lookup for efficacy; key = "C[C@@H]1CCNC(=O)c2cc3ccc(C(=O)Nc4nc5ccccc5n4CCCN(C)C)cc3n21" -92.3

Value lookup for efficacy; key = "CN\1N(C(=O)\C(=C1C)C(=O)NC2=CC=C(OC3=CC=NC4=C3C(=C[NH]4)C5=CC=CC=C5)C(=C2)F)C6=CC=C(F)C=C6" -59.9

----------
# System: HCT116;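 also: Luminescence-based viability readout, five doses per compound, normalized against on-plate DMSO and empty-well controls, followed by dose-response curve fitting for every drug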
# assayProcedure: efficacy (fitted maximal change in viability relative to DMSO control); higher = less cytotoxic (negative = loss of viability)
# assayConditions: 48 h
Structures can show the parent of a compound that is named as a salt.
Below, each entry is listed with its recorded efficacy.
Report only the number, with the unit % understood.

Solved entries (count: 5):
[
  {
    "compound": "CN1\\C=C(/N=C(NC2=CC=C(C=C2)C(=O)N3CCOCC3)\\C1=O)C4=C(C)C(=CC=C4)NC(=O)C5=CC=C(C=C5)C(C)(C)C",
    "efficacy [%]": -29.2
  },
  {
    "compound": "O=C(NO)C1(C[S+](=O)([O-])c2ccc(Oc3ccc(Cl)cc3)cc2)CCOCC1",
    "efficacy [%]": -61.5
  },
  {
    "compound": "C=C1/C(=C/C=C2\\CCCC3(C)[C@@H]([C@H](C)/C=C/C=C/C(O)(CC)CC)CC[C@@H]23)C[C@@H](O)C[C@@H]1O (stereo not given in full)",
    "efficacy [%]": -31.2
  },
  {
    "compound": "CC(=O)N1c2ccc(-c3ccc(C(=O)O)cc3)cc2[C@H](Nc2ccc(Cl)cc2)C[C@@H]1C",
    "efficacy [%]": -90.5
  },
  {
    "compound": "CC(C)C(=O)Nc1ncc(-c2cc(C(F)F)nn2-c2c(Cl)cccc2Cl)s1",
    "efficacy [%]": -80.8
  }
]

Value lookup for efficacy; key = "CO[C@@H](C(=O)N1Cc2[nH]nc(NC(=O)c3ccc(N4CCN(C)CC4)cc3)c2C1)c1ccccc1" -71.4

Value lookup for efficacy; key = Clc1ccccc1CN1CCc2sccc2C1 [Ticlopidine hydrochloride] -21.1

Value lookup for efficacy; key = OC[C@H]1O[C@@H](O[C@@H]2[C@@H](CO)OC(O)(CO)[C@H]2O)[C@H](O)[C@@H](O)[C@H]1O (mixture of isomers) 9

Value lookup for efficacy; key = "COc1cc2c(Nc3ccc(NC(=O)c4ccccc4)cc3)ncnc2cc1OCCCN1CCOCC1" -120

Value lookup for efficacy; key = "CCCC1(CCC)CCC2(CCN(CCCN(CC)CC)C2)CC1" -99.3

Value lookup for efficacy; key = "O=C(CCCCCCNC(=O)c1cnc(N(c2ccccc2)c2ccccc2Cl)nc1)NO" -86.2

Value lookup for efficacy; key = "c1ccc(-c2oc3ncnc(NC[C@@H]4CCCO4)c3c2-c2ccccc2)cc1" -69.3

Value lookup for efficacy; key = "C#Cc1cccc(Nc2ncnc3cc(OCCOC)c(OCCO)cc23)c1" -76.6

Value lookup for efficacy; key = "COC(=O)/C=C/C(=O)N(O)CCCCNCc1ccc(COC(=O)Nc2cccc3ccccc23)cc1" -84.5

Value lookup for efficacy; key = "CN1CCc2c(c3ccccc3n2Cc2ccc(C(=O)NO)cc2)C1" -93.8

Value lookup for efficacy; key = "Cc1cc(C)c([S+](=O)([O-])N(CCc2cccc(Br)c2)Cc2ccc(-c3cccc([S+](C)(=O)[O-])c3)cc2)c(C)c1" 15.4

Value lookup for efficacy; key = Cc1c(C)c2c(c(C)c1O)CCC(C)(COc1ccc(CC3SC(=O)NC3=O)cc1)O2 (stereo not given) -55.1

Value lookup for efficacy; key = "CC(C)C[C@@H]1NC(=O)[C@@H](C(C)C)NC(=O)[C@@H]2CCCN2C(=O)[C@@H](CC(=O)O)NC(=O)[C@@H](Cc2c[nH]c3ccccc23)NC1=O" -9.37

Value lookup for efficacy; key = "C[S+](=O)([O-])c1ccc(C(=O)Nc2ccc(Cl)c(-c3ccccn3)c2)c(Cl)c1" -23.8

Value lookup for efficacy; key = CCCC1OC2C[C@H]3[C@@H]4CCC5=CC(=O)C=C[C@]5(C)[C@H]4C(O)C[C@]3(C)[C@]2(C(=O)CO)O1 (stereo not given in full) [Budesonide] -52.3

Value lookup for efficacy; key = "CN1CCN(CC1)C\2=C\3/C=C(/C)SC3=N/C4=CC=CC=C4N2" -17.1
